# system: HLA-A*69:01
# procedure_details: IEDB peptide-MHC binding, purified MHC/competitive/fluorescence; filed as Kd, often an IC50 or EC50 that approximates it; bounds were set here for any values at or beyond the usual limits of such assays
# assay_setup: source organism: Giardia lamblia ATCC 50803
measured_parameter: Kd

[[record]]
chain = "ETESVNSNY"
result = "≥ 20 µM"


---

# system: HLA-A*02:12
# procedure_details: IEDB peptide-MHC binding, purified MHC/direct/fluorescence; filed as Kd, often an IC50 or EC50 that approximates it; bounds were set here for any values at or beyond the usual limits of such assays
# assay_setup: source organism: Giardia lamblia ATCC 50803
measured_parameter: Kd

[[record]]
chain = "VLLISDPGL"
measured_parameter = "Kd"
result = "≥ 20 µM"

